# Procedure Details: Solubility of antide in isotonic media
# Format: physicochemical
# Assay Setup: 0.9% NaCl solution
Square brackets hold non-standard residues; d marks the D form. Peptide text beside a SMILES is read from it. * marks the point of attachment. Phe(4-Cl) = N[CH](Cc1ccc(Cl)cc1)C(=O)O; 2Nal = N[CH](Cc1ccc2ccccc2c1)C(=O)O; Lys(iPr) = CC(C)NCCCC[CH](N)C(=O)O; 3Pal = N[CH](Cc1cccnc1)C(=O)O; Nicotinoyl = O=C(c1cccnc1)*
Measured Parameter: solubility (µg/mL)
Give a bare numeral; the unit µg/mL is implied.

(Q) Request the reported solubility associated with CC(=O)NC(Cc1ccc2ccccc2c1)C(=O)NC(Cc1ccc(Cl)cc1)C(=O)NC(Cc1cccnc1)C(=O)NC(CO)C(=O)NC(CCCCNC(=O)c1cccnc1)C(=O)NC(CCCCNC(=O)c1cccnc1)C(=O)NC(CC(C)C)C(=O)NC(CCCCNC(C)C)C(=O)N1CCCC1C(=O)NC(C)C(N)=O (stereo not shown) [antide] (Ac-[2Nal][Phe(4-Cl)][3Pal]SK(Nicotinoyl)K(Nicotinoyl)L[Lys(iPr)]PA-NH2; configuration not given here)
(A) 25
